- method-notes: Inhibition of Mycobacterium tuberculosis H37Rv cytochrome bd oxidase with ATP synthase overexpression inverted membrane vesicles
- Assay type: cell membranes, Membrane vesicle
pIC50: −log10 of the molar value.

- mol: "c1ccc(CCNc2ncnc3ccccc23)cc1"
  pIC50: 4.57
